Measured values drawn from paper PMC11149917 for this set.

Assay: Mouse blood and tissue PK (LC/MS-MS)
Assay type: in vivo
Settings: mouse, tumor, oral, 25 mg/kg, HPAC #4; 25 mg/kg, 8h; individual animals; read-out: RMC-6236 (nM) Tumor
Description: For single-dose PKPD study, mice were randomized and assigned into groups (n = 3/dose/time point). […] Blood and tissues, including the tumor, brain, colon, ear skin, and muscle, were harvested at indicated time points. […] The whole blood, tumor, brain, colon, and ear skin concentrations of RMC-6236 were determined using liquid chromatography–tandem mass spectrometry (LC/MS-MS) methods. […] Concentrations reported as below the quantification limit were treated as zero for PK analysis. […]
ASSAY ENDPOINT: concentration at 8 h (nM)
Your answer should be a plain number; it is taken to be in nM.

For the compound `CCn1c(-c2cc(N3CCN(C)CC3)cnc2[C@H](C)OC)c2c3cc(ccc31)-c1csc(n1)C[C@H](NC(=O)[C@H]1C[C@@H]1C)C(=O)N1CCC[C@H](N1)C(=O)OCC(C)(C)C2` , report concentration at 8 h.
4080
